Source: patent US20240226072A1

# RUN_DESCRIPTION: in vivo
# EXPERIMENTAL_PARAMETERS: male, FVB, wild-type, mouse, po, 1 mg/kg, Tmax
QUANTITY: Tmax (min)
Answers are plain numbers, in min.

Query block: Record request: Tmax value, item `CC(C)c1nc(CN(C)C(=O)N[C@H](C(=O)N[C@@H](Cc2ccccc2)C[C@H](O)[C@H](Cc2ccccc2)NC(=O)OCc2cncs2)C(C)C)cs1`
Result block: 19.8

----------
# RUN_DESCRIPTION: Carboxylesterase pharmacokinetic experiment: oral cabazitaxel 10 mg/kg, 2 h, in wild-type, Ces1cde−/− and Ces1−/− mice
# Type: in vivo
# EXPERIMENTAL_PARAMETERS: male, FVB, mouse, plasma, po, 10 mg/kg, Ces1cde−/− mice; oral 10 mg/kg cabazitaxel; plasma; read-out: AUC0-120min
QUANTITY: AUC(0-t) (µM·h)
Answers are plain numbers, in µM·h.

Query block: Record request: AUC(0-t) value, item CO[C@H]1C(=O)[C@]2(C)[C@@H](OC)C[C@H]3OC[C@@]3(OC(C)=O)[C@H]2[C@H](OC(=O)c2ccccc2)[C@]2(O)C[C@H](OC(=O)[C@H](O)[C@@H](NC(=O)OC(C)(C)C)c3ccccc3)C(C)=C1C2(C)C [cabazitaxel]
Result block: 1.03

----------
# RUN_DESCRIPTION: Carboxylesterase pharmacokinetic experiment: oral cabazitaxel 10 mg/kg, 2 h, in wild-type, Ces1cde−/− and Ces1−/− mice
# Assay type: in vivo
# EXPERIMENTAL_PARAMETERS: male, FVB, mouse, brain, po, 10 mg/kg, Ces1−/− mice; oral 10 mg/kg cabazitaxel; 2 h; read-out: Brain-to-plasma ratio
QUANTITY: Kp at 2 h

Query block: Record request: Kp at 2 h value, item `CO[C@H]1C(=O)[C@]2(C)[C@@H](OC)C[C@H]3OC[C@@]3(OC(C)=O)[C@H]2[C@H](OC(=O)c2ccccc2)[C@]2(O)C[C@H](OC(=O)[C@H](O)[C@@H](NC(=O)OC(C)(C)C)c3ccccc3)C(C)=C1C2(C)C`
Result block: 0.43

----------
# RUN_DESCRIPTION: Plasma pharmacokinetics and tissue distribution 2 h after oral cabazitaxel 10 mg/kg with vehicle or 25 mg/kg ritonavir in wild-type, Oatp1a/1b−/−, Oatp1a/1b/2b1−/−, OATP1B1- and OATP1B3-transgenic mice
# Type: in vivo
# EXPERIMENTAL_PARAMETERS: male, FVB, mouse, plasma, po, 10 mg/kg, OATP1B3-transgenic mice; ritonavir 25 mg/kg oral; cabazitaxel 10 mg/kg oral
QUANTITY: Cmax (µM)
Numbers only, in µM.

Query block: Record request: Cmax value, item `CO[C@H]1C(=O)[C@]2(C)[C@@H](OC)C[C@H]3OC[C@@]3(OC(C)=O)[C@H]2[C@H](OC(=O)c2ccccc2)[C@]2(O)C[C@H](OC(=O)[C@H](O)[C@@H](NC(=O)OC(C)(C)C)c3ccccc3)C(C)=C1C2(C)C`
Result block: 3.86

----------
# RUN_DESCRIPTION: Plasma pharmacokinetics and tissue distribution 2 h after oral cabazitaxel 10 mg/kg with vehicle or 25 mg/kg ritonavir in wild-type, Oatp1a/1b−/−, Oatp1a/1b/2b1−/−, OATP1B1- and OATP1B3-transgenic mice
# Type: in vivo
# EXPERIMENTAL_PARAMETERS: male, FVB, mouse, plasma, po, 25 mg/kg, AUC0-[…], OATP1B3-transgenic mice; ritonavir 25 mg/kg oral; cabazitaxel 10 mg/kg oral
# Method: All animals were fasted 2 to 3 hours prior to the start of the experiment to minimize variation in absorption after oral administration. […] Subsequently, cardiac puncture was performed with a heparinized needle and syringe collecting a final blood sample. […] All samples were stored at −30° C. until analysis. Differences were considered statistically significant when P<0.05. All data are presented as geometric mean±SD.
QUANTITY: AUC(0-t)
Answer format: number, then unit.

Query block: Record request: AUC(0-t) value, item `CC(C)c1nc(CN(C)C(=O)N[C@H](C(=O)N[C@@H](Cc2ccccc2)C[C@H](O)[C@H](Cc2ccccc2)NC(=O)OCc2cncs2)C(C)C)cs1`
Result block: 14.8 µM·h

----------
# RUN_DESCRIPTION: Plasma pharmacokinetics and tissue distribution 2 h after oral cabazitaxel 10 mg/kg with vehicle or 25 mg/kg ritonavir in wild-type, Oatp1a/1b−/−, Oatp1a/1b/2b1−/−, OATP1B1- and OATP1B3-transgenic mice
# Assay type: in vivo
# EXPERIMENTAL_PARAMETERS: male, FVB, mouse, plasma, po, 10 mg/kg, Oatp1a/1b−/− mice; vehicle pretreatment; oral 10 mg/kg cabazitaxel; plasma, 0-2 h; read-out: AUC0-2 h
Kindly supply the reported AUC(0-t) values for the records listed here.
Numbers only, in µM·h.

COMPOUND_STRUCTURE: CC(=O)O[C@@]12CO[C@@H]1C[C@H](O)[C@@]1(C)C(=O)[C@H](O)C3=C(C)[C@@H](OC(=O)[C@H](O)[C@@H](NC(=O)OC(C)(C)C)c4ccccc4)C[C@@](O)([C@@H](OC(=O)c4ccccc4)[C@H]21)C3(C)C
AUC(0-t) [µM·h]: 0.216

Shifting focus to the molecule that follows.
Query block: Record request: AUC(0-t) value, item `CO[C@H]1C(=O)[C@]2(C)[C@@H](OC)C[C@H]3OC[C@@]3(OC(C)=O)[C@H]2[C@H](OC(=O)c2ccccc2)[C@]2(O)C[C@H](OC(=O)[C@H](O)[C@@H](NC(=O)OC(C)(C)C)c3ccccc3)C(C)=C1C2(C)C`
Result block: 2.62

----------
# RUN_DESCRIPTION: Plasma pharmacokinetics and tissue distribution 2 h after oral cabazitaxel 10 mg/kg with vehicle or 25 mg/kg ritonavir in wild-type, Oatp1a/1b−/−, Oatp1a/1b/2b1−/−, OATP1B1- and OATP1B3-transgenic mice
# Format: in vivo
# EXPERIMENTAL_PARAMETERS: male, FVB, mouse, plasma, po, 10 mg/kg, Oatp1a/1b/2b1−/− mice; ritonavir 25 mg/kg oral; cabazitaxel 10 mg/kg oral
QUANTITY: Cmax (µM)
Answers are plain numbers, in µM.

Query block: Record request: Cmax value, item `CO[C@H]1C(=O)[C@]2(C)[C@@H](OC)C[C@H]3OC[C@@]3(OC(C)=O)[C@H]2[C@H](OC(=O)c2ccccc2)[C@]2(O)C[C@H](OC(=O)[C@H](O)[C@@H](NC(=O)OC(C)(C)C)c3ccccc3)C(C)=C1C2(C)C`
Result block: 4.27

----------
# RUN_DESCRIPTION: in vivo
# EXPERIMENTAL_PARAMETERS: male, FVB (wild-type), mouse, po, 1 mg/kg, AUC0-24 h
QUANTITY: AUC(0-t)
Answer format: number, then unit.

Query block: Record request: AUC(0-t) value, item CC(C)c1nc(CN(C)C(=O)N[C@H](C(=O)N[C@@H](Cc2ccccc2)C[C@H](O)[C@H](Cc2ccccc2)NC(=O)OCc2cncs2)C(C)C)cs1 [ritonavir]
Result block: 5.91 nM·h

----------
# RUN_DESCRIPTION: in vivo
# EXPERIMENTAL_PARAMETERS: male, FVB, wild-type, mouse, po, 1 mg/kg, Cmax
QUANTITY: Cmax (nM)
Give bare numbers, in nM.

Query block: Record request: Cmax value, item `CC(C)c1nc(CN(C)C(=O)N[C@H](C(=O)N[C@@H](Cc2ccccc2)C[C@H](O)[C@H](Cc2ccccc2)NC(=O)OCc2cncs2)C(C)C)cs1`
Result block: 5.76

----------
# RUN_DESCRIPTION: Plasma pharmacokinetics and tissue distribution 2 h after oral cabazitaxel 10 mg/kg with vehicle or 25 mg/kg ritonavir in wild-type, Oatp1a/1b−/−, Oatp1a/1b/2b1−/−, OATP1B1- and OATP1B3-transgenic mice
# Format: in vivo
# EXPERIMENTAL_PARAMETERS: male, FVB, mouse, plasma, po, 10 mg/kg, Oatp1a/1b−/− mice; vehicle pretreatment; oral 10 mg/kg cabazitaxel
QUANTITY: Tmax (min)
One number for each entry, in min.

COMPOUND_STRUCTURE: CO[C@H]1C(=O)[C@]2(C)[C@@H](OC)C[C@H]3OC[C@@]3(OC(C)=O)[C@H]2[C@H](OC(=O)c2ccccc2)[C@]2(O)C[C@H](OC(=O)[C@H](O)[C@@H](NC(=O)OC(C)(C)C)c3ccccc3)C(C)=C1C2(C)C
Tmax [min]: 24.2

Query block: Record request: Tmax value, item `CC(=O)O[C@@]12CO[C@@H]1C[C@H](O)[C@@]1(C)C(=O)[C@H](O)C3=C(C)[C@@H](OC(=O)[C@H](O)[C@@H](NC(=O)OC(C)(C)C)c4ccccc4)C[C@@](O)([C@@H](OC(=O)c4ccccc4)[C@H]21)C3(C)C`
Result block: 35

----------
# RUN_DESCRIPTION: Plasma pharmacokinetics and tissue distribution 2 h after oral cabazitaxel 10 mg/kg with vehicle or 25 mg/kg ritonavir in wild-type, Oatp1a/1b−/−, Oatp1a/1b/2b1−/−, OATP1B1- and OATP1B3-transgenic mice
# Assay type: in vivo
# EXPERIMENTAL_PARAMETERS: male, FVB, mouse, liver, oral, Oatp1a/1b/2b1−/− mice; ritonavir 25 mg/kg oral; cabazitaxel 10 mg/kg oral; 2 h; read-out: Liver-to-plasma ratio
QUANTITY: Kp at 2 h
Answers are plain numbers.

Query block: Record request: Kp at 2 h value, item `CO[C@H]1C(=O)[C@]2(C)[C@@H](OC)C[C@H]3OC[C@@]3(OC(C)=O)[C@H]2[C@H](OC(=O)c2ccccc2)[C@]2(O)C[C@H](OC(=O)[C@H](O)[C@@H](NC(=O)OC(C)(C)C)c3ccccc3)C(C)=C1C2(C)C`
Result block: 3.95
